# assayed_target: HIV-1 RT (Human immunodeficiency virus type 1 group M subtype B, UniProt P03367)
# Construct: Reverse transcriptase enzyme from the LAV strain of Human Immunodeficiency Virus (HIV-1) (1) was isolated from the bacterial strain JM109; made in house; host or cells: E. coli JM109, clone pBRTprt1+ in vector pIBI21, lac promoter, IPTG induction
# protocol_notes: Reverse Transcriptase (RT) Assay: inhibition of RNA-dependent DNA polymerase activity
# Type: biochemical
# measurement_parameters: 10µg/ml; Table I, compounds of formula I; read-out: RT Inhibition % @ 10µg/ml
measured_quantity: inhibition at 10 µg/mL (%)

These solved cases illustrate the format of a correct answer.
CCN1c2ccccc2N(C)C(=O)c2cccnc21 [Example 2]
97
CCN1C(=O)c2cccnc2Nc2cccc(C)c21 [Example 31]
92
CN1c2ccccc2NC(=O)c2cccnc21 [Example 1]
37

A. CCN1c2ccccc2N(CF)C(=O)c2cccnc21 [Example 34]
B. CCCCN1c2ccccc2N(C)C(=O)c2cccnc21 [Example 6]
Hi there! Just curious which has the higher inhibition at 10 µg/mL between A and B . Respond using the label that marks the chosen record. A
(A: 85%, B: 46%)

* * *

# assayed_target: HIV-1 RT (Human immunodeficiency virus type 1 group M subtype B)
# Construct: Reverse transcriptase enzyme from the LAV strain of Human Immunodeficiency Virus (HIV-1) (1) was isolated from the bacterial strain JM109; made in house; host or cells: E. coli JM109, clone pBRTprt1+ in vector pIBI21, lac promoter, IPTG induction
# protocol_notes: Reverse Transcriptase (RT) Assay: inhibition of RNA-dependent DNA polymerase activity
# Format: biochemical
# measurement_parameters: 10µg/ml; Table I, compounds of formula I; read-out: RT Inhibition % @ 10µg/ml
measured_quantity: inhibition at 10 µg/mL (%)

These solved cases illustrate the format of a correct answer.
CCCCN1C(=O)c2cccnc2N(C)c2ccccc21 [Example 14]
75
CN1C(=O)c2cccnc2N(Cc2ccccc2)c2ccccc21 [Example 25]
73

P. CN1C(=O)c2cccnc2N(CCO)c2ccccc21 [Example 7]
Q. CCN1c2ccccc2NC(=O)c2cccnc21 [Example 23]
# compare inhibition at 10 µg/mL for P vs Q ; return the one with the smaller value Respond using the label that marks the chosen record. P
(P: 50%, Q: 100%)

* * *

# assayed_target: HIV-1 RT (Human immunodeficiency virus type 1 group M subtype B)
# Construct: Reverse transcriptase enzyme from the LAV strain of Human Immunodeficiency Virus (HIV-1) (1) was isolated from the bacterial strain JM109; made in house; host or cells: E. coli JM109, clone pBRTprt1+ in vector pIBI21, lac promoter, IPTG induction
# protocol_notes: Reverse Transcriptase (RT) Assay: inhibition of RNA-dependent DNA polymerase activity
# Assay type: biochemical
# measurement_parameters: 10µg/ml; Table I, compounds of formula I; read-out: RT Inhibition % @ 10µg/ml
measured_quantity: inhibition at 10 µg/mL (%)

1. CCN1c2cc(C)c(C)cc2N(C)C(=O)c2cccnc21 [Example 29]
2. Cc1ccc2c(n1)N(C)c1cc(C)c(C)cc1N(C)C2=O [Example 15]
# compare inhibition at 10 µg/mL for 1 vs 2 ; return the one with the smaller value Respond using the label that marks the chosen record. 2
(2: 39%, 1: 99%)

* * *

# assayed_target: HIV-1 RT (Human immunodeficiency virus type 1 group M subtype B)
# Construct: Reverse transcriptase enzyme from the LAV strain of Human Immunodeficiency Virus (HIV-1) (1) was isolated from the bacterial strain JM109; made in house; host or cells: E. coli JM109, clone pBRTprt1+ in vector pIBI21, lac promoter, IPTG induction
# protocol_notes: Reverse Transcriptase (RT) Assay: inhibition of RNA-dependent DNA polymerase activity
# Format: biochemical
# measurement_parameters: 10µg/ml; Table I, compounds of formula I; read-out: RT Inhibition % @ 10µg/ml
measured_quantity: inhibition at 10 µg/mL (%)

These solved cases illustrate the format of a correct answer.
CCN1C(=O)c2cccnc2N(C)c2ccccc21 [Example 11]
88
CCCN1c2ccccc2N(C)C(=O)c2cccnc21 [Example 3]
92
CCN1C(=O)c2cccnc2N(CC)c2ccccc21 [Example 21]
96
CN1C(=O)c2cccnc2N(C)c2cc(C(F)(F)F)ccc21 [Example 4]
79
CC(=O)N1c2ccccc2N(C)C(=O)c2cccnc21 [Example 18]
29
CC(C)N1C(=O)c2cccnc2N(C)c2ccccc21 [Example 13]
91
CCCN1C(=O)c2cccnc2N(C)c2ccccc21 [Example 12]
89
Cc1cc2c(cc1C)N(C)C(=O)c1cccnc1N2 [Example 28]
65

I. CC(=O)N1c2cc(C)c(C)cc2N(C)C(=O)c2cccnc21 [Example 19]
II. CN1C(=O)c2cccnc2N(C)c2ccc(Cl)cc21 [Example 8]
Hi there! Just curious which has the higher inhibition at 10 µg/mL between I and II . Respond using the label that marks the chosen record. I
(I: 90%, II: 55%)
